- System: Plasmodium falciparum
- experimental-details: Inhibition of Plasmodium falciparum protein farnesyltransferase at 5 nM by scintillation proximity assay
property-measured: inhibition (%)
One number for each entry, in %.

Example entries and their recorded answers appear below.
compound: COCC(=O)N(Cc1ccccc1F)C1Cc2cc(C#N)ccc2N(Cc2cncn2C)C1 (stereo not drawn)
units-label: %
inhibition: 19
--
compound: Cn1cnc(S(=O)(=O)N(Cc2cccc3nsnc23)C2Cc3cc(C#N)ccc3N(Cc3cncn3C)C2)c1 (stereo not drawn)
units-label: %
inhibition: 94
--
compound: Cn1cnc(S(=O)(=O)N(Cc2ccc(F)cc2)C2Cc3cc(C#N)ccc3N(Cc3cncn3C)C2)c1 (stereo not drawn)
units-label: %
inhibition: 93

Batch request: inhibition for each of the following compounds.
1. Cn1cncc1CN1CC(N(CC2CCN(C(=O)CC(F)(F)F)CC2)S(=O)(=O)c2ccccn2)Cc2cc(C#N)ccc21 (stereo not drawn)
2. Cn1cncc1CN1CC(N(CC(=O)NC(C)(C)C)S(=O)(=O)c2ccc(F)cc2)Cc2cc(C#N)ccc21 (stereo not drawn)
3. Cn1cnc(S(=O)(=O)N(Cc2cc3nsnc3cc2Cl)C2Cc3cc(C#N)ccc3N(Cc3cncn3C)C2)c1 (stereo not drawn)
4. Cn1cnc(S(=O)(=O)N(CC(=O)OC(C)(C)C)C2Cc3cc(C#N)ccc3N(Cc3cncn3Cc3ccccc3)C2)c1 (stereo not drawn)
5. COC(=O)N(C)CCCCN(C1Cc2cc(C#N)ccc2N(Cc2cncn2C)C1)S(=O)(=O)c1ccccn1 (stereo not drawn)

**A:**
[30, 33, 58, 45, 59]
